Reference for the values: patent US12157713B2

tested on: Klebsiella pneumoniae MDR ATCC 700603; assay: Single-dose growth inhibition, Kp; format: cell-based; details: ATCC700603, 32 μg/mL single dose, n=2, read-out: Growth inhibition Kp
parameter: inhibition at 32 µg/mL

compound	parameter	experimentalValue
C[N+](C)(C)CC[N+](C)(C)CCCCCCOc1ccc(/C=C/c2ccc(OCCCCCC[N+](C)(C)CC[N+](C)(C)C)cc2)cc1	inhibition at 32 µg/mL	> 80%
CN(C)CC[N+](C)(C)CCCCOc1ccc(/C=C/c2ccc(/C=C/c3ccc(OCCCC[N+](C)(C)CCN(C)C)cc3)cc2)cc1 [COE-T42N]	inhibition at 32 µg/mL	< 50%
C[N+](C)(C)CC[N+](C)(C)CCCCCCCCOc1ccc(/C=C/c2ccc(OCCCCCCCC[N+](C)(C)CC[N+](C)(C)C)cc2)cc1	inhibition at 32 µg/mL	50 to 80%
C[N+](C)(C)CC[N+](C)(C)CCCCCCOc1ccc(/C=C/c2ccc(/C=C/c3ccc(OCCCCCC[N+](C)(C)CC[N+](C)(C)C)cc3)cc2)cc1	inhibition at 32 µg/mL	< 50%
CN(C)CC[N+](C)(C)CCCCCCOc1ccc(/C=C/c2ccc(/C=C/c3ccc(OCCCCCC[N+](C)(C)CCN(C)C)cc3)cc2)cc1 [COE-T62N]	inhibition at 32 µg/mL	< 50%
CN(C)CC[N+](C)(C)CCCCCCOc1ccc(/C=C/c2ccc(OCCCCCC[N+](C)(C)CCN(C)C)cc2)cc1 [COE-D62N]	inhibition at 32 µg/mL	< 50%
